CONDITION_LABEL: in n-butanol, 293.15 K
ASSAY_ENDPOINT: solubility (mole fraction)
Answer with the value's number alone.

Which measured solubility (mole fraction) value corresponds to Cn1nccc1O ?
0.121

---

CONDITION_LABEL: in methyl acetate, 293.15 K
ASSAY_ENDPOINT: solubility (mole fraction)
Answer with the value's number alone.

Which measured solubility (mole fraction) value corresponds to Cn1nccc1O ?
0.0128

---

CONDITION_LABEL: in n-propanol, 283.15 K
ASSAY_ENDPOINT: solubility (mole fraction)
Answer with the value's number alone.

Which measured solubility (mole fraction) value corresponds to Cn1nccc1O ?
0.0922
